Recorded Neutralization IC50, H1-PR34-OR by entry
target entity: HA of A/Puerto Rico/8/34 (H1N1) (influenza A virus, UniProt P03452 18-565)
Sequence (P03452 18-565 limits assumed): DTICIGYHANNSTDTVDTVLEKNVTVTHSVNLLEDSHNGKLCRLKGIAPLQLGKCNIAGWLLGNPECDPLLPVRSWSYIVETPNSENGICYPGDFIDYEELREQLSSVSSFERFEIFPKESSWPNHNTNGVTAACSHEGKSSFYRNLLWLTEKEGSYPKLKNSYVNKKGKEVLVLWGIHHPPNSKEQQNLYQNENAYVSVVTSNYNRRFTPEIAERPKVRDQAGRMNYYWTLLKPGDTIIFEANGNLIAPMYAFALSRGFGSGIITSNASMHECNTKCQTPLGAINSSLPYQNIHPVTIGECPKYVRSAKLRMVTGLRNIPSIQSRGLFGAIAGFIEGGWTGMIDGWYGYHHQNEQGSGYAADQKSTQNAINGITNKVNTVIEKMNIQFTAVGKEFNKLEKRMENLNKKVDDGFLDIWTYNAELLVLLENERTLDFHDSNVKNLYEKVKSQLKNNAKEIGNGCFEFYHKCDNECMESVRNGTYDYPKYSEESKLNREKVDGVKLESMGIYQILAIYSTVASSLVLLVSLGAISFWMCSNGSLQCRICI
assay method text: cell-based or functional assay
Quick note: give the figure in µg/mL, leave out the unit.

Consider the reported Neutralization IC50, H1-PR34-OR for these binders:
Antibody 11 (antibody, V domains shown) VH: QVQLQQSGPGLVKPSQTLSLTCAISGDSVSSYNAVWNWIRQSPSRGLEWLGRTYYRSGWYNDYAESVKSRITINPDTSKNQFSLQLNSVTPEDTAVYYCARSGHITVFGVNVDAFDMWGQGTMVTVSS VL: DIQMTQSPSSLSASVGDRVTITCRTSQSLSSYTHWYQQKPGKAPKLLIYAASSRLSGVPSRFSGSGSGTDFTLTISSLQPEDFATYYCQQSRTFGQGTKVEIK; 0.73
Antibody 14 (antibody, V domains shown) VH: QVQLQQSGPGLVKPSQTLSLTCAISGDSVSSNNAVWNWIRQSPSRGLEWLGRTYYRSKWYNDYAESVKSRITINPDTSKNQFSLQLNSVTPEDTAVYYCARSGHITVFGVNVDAFDMWGQGTTVTVSS VL: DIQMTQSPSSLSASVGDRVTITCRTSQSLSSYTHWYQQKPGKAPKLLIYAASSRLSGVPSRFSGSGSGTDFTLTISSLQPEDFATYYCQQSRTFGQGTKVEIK; 0.83

Neutralization IC50, H1-PR34-OR recorded for this binder, Antibody 13 (antibody, V domains shown) VH: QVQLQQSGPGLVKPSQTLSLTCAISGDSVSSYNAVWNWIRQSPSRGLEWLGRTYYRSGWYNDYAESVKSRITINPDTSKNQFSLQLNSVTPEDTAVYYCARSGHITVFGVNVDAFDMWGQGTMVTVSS VL: DIQMTQSPSSLSASVGDRVTITCRTSQSLSSYDHWYQQKPGKAPKLLIYAASSRLSGVPSRFSGSGSGTDFTLTISSLQPEDFATYYCQQSRTFGQGTKVEIK , is 0.88
